Where do these numbers come from? They come from ChEMBL document CHEMBL4265889.

- assayed_system: Toll-like receptor 8 (Homo sapiens)
- method_summary: Agonist activity at human TLR8 expressed in HEK293 cells after 6 hrs by NFkappaB-luciferase reporter gene assay
- Format: cell-based
The compounds listed here are annotated with their MEC.
experimental_endpoint: MEC (µM)

CCCCNc1nc(N)nc2c1CN(C(=O)c1cscn1)CC2 | 0.5
CCCCNc1nc(N)nc2c1CN(Cc1cccc(OC)c1Cl)CC2 | 0.04
CCCCNc1nc(N)nc2c1CN(Cc1c[nH]c3ccccc13)CC2 | 0.22
CCCCNc1nc(N)nc2c1CN(Cc1cccc(Cl)c1Cl)CC2 | 0.18
CCCCNc1nc(N)nc2c1CN(C)CC2 | 0.03
CCCC[C@@H](CCO)Nc1nc(N)nc2c1CN(C(=O)c1csc(C)n1)CC2 | 6.6
CCCCNc1nc(N)nc2c1CCN(S(C)(=O)=O)C2 | 0.8
CCCCNc1nc(N)nc2c1CCN(C)C2 | 0.2
CCCCNc1nc(N)nc2c1CN(Cc1cc(F)cc(F)c1)CC2 | 0.23
CCCCNc1nc(N)nc2c1CCN(Cc1ccccc1)C2 | 0.4
CCCCNc1nc(N)nc2c1CN(S(C)(=O)=O)CC2 | 9.9
CCCCNc1nc(N)nc2c1CN(Cc1cccs1)CC2 | 0.14
CCCCNc1nc(N)nc2c1CN(Cc1ccc(-c3ccccc3)cc1)CC2 | 0.5
CCCC[C@@H](CCO)Nc1nc(N)nc2c1CN(C(=O)c1cccs1)CC2 | 1.7
